Each item that follows carries a reported koff.
Molecular target: cyno ST2L (cyno)
Assay: affinity table; method not stated
Enter your answer as a number in s⁻¹; do not include the unit.

Binder	koff / s⁻¹
STLM210 (antibody, from another filing, V domains shown) VH: EVQLLESGGGLVQPGGSLRLSCAASGFTFSDDAMIWVRQAPGKGLEWVSYIGGNGGTTYYADSVKGRFTISRDNSKNTLYLQMNSLRAEDTAVYYCARDPWSTEGSFFVLDYWGQGTLVTVSS VL: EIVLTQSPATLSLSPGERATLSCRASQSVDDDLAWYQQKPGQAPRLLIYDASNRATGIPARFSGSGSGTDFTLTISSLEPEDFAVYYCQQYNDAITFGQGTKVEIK	0.000528
STLM228 (antibody, from another filing, V domains shown) VH: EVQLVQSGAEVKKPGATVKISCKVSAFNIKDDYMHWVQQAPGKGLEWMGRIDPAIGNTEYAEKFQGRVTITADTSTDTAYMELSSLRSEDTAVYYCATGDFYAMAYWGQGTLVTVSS VL: DIQMTQSPSTLSASVGDRVTITCITNTDIDDVIHWYQQKPGKAPKLLIYEGNTLRPGVPSRFSGSGSGTEFTLTISSLQPDDFATYYCLQSDNMLTFGQGTKLEIK	0.0155
STLM219 (antibody, from another filing, V domains shown) VH: EVQLLESGGGLVQPGGSLRLSCAASGFTFSGYDMFWVRQAPGKGLEWVSDIGGEGGSTNYADSVKGRFTISRDNSKNTLYLQMNSLRAEDTAVYYCARDPWSTEGSFFVLDYWGQGTLVTVSS VL: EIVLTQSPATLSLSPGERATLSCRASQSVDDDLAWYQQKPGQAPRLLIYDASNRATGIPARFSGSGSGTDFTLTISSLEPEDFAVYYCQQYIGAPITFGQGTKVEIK	0.00023
STLM229 (antibody, from another filing, V domains shown) VH: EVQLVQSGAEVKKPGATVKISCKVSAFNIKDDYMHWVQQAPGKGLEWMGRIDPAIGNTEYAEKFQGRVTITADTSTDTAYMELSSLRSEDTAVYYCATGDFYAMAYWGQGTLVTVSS VL: DIQMTQSPSSVSASVGDRVTITCITNTDIDDVIHWYQQKPGKAPKLLIYEGNTLRPGVPSRFSGSGSGTDFTLTISSLQPEDFATYYCLQSDNMLTFGQGTKLEIK	0.0085

Okay, next one:
STLM212 (antibody, from another filing, V domains shown) VH: EVQLLESGGGLVQPGGSLRLSCAASGFTFSVYDMIWVRQAPGKGLEWVSTIRGEGGGTYYADSVKGRFTISRDNSKNTLYLQMNSLRAEDTAVYYCARDPWSTEGSFFVLDYWGQGTLVTVSS VL: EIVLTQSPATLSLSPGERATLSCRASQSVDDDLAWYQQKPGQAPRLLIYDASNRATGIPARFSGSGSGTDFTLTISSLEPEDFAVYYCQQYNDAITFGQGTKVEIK has a reported koff of 0.000346

The reported numbers originate from patent US20190202907A1.
